Reported values of relative viability for individual entries
# Test system: RERF-LC-KJ
# procedure_summary: relative viability (nuclei count vs DMSO), 5 days (fraction); higher = more cells survive
# test_settings: first compound 0.3162 µM
quantity: relative viability

NC(=O)Nc1cc(-c2cccc(F)c2)sc1C(=O)N[C@H]1CCCNC1 [AZD7762] + Nc1nc2[nH]cc(CCc3ccc(C(=O)N[C@@H](CCC(=O)O)C(=O)O)cc3)c2c(=O)[nH]1 [Pemetrexed] (partner 0.2 µM); 0.399
NC(=O)Nc1cc(-c2cccc(F)c2)sc1C(=O)N[C@H]1CCCNC1 [AZD7762] + CC(=O)c1c(C)c2cnc(Nc3ccc(N4CCNCC4)cn3)nc2n(C2CCCC2)c1=O [Palbociclib] (partner 0.5 µM); 1.01
NC(=O)Nc1cc(-c2cccc(F)c2)sc1C(=O)N[C@H]1CCCNC1 [AZD7762] + N=C(N)NC(=N)NCCc1ccccc1 [Phenformin] (partner 250 µM); 0.4
NC(=O)Nc1cc(-c2cccc(F)c2)sc1C(=O)N[C@H]1CCCNC1 [AZD7762] + CC(=O)Nc1cccc(-n2c(=O)n(C3CC3)c(=O)c3c(Nc4ccc(I)cc4F)n(C)c(=O)c(C)c32)c1 [Trametinib] (partner 0.02 µM); 0.874
